Reference source: PubChem BioAssay AID504765

Listing of recorded IC50 by entry.
Biological target: glucose-6-phosphate dehydrogenase-6-phosphogluconolactonase (Plasmodium falciparum 3D7)
Test: concentration-dependent PfGluPho enzyme inhibition – biochemical, fluorescence intensity, dose response (AID 504765)
Conditions: Recombinant PfG6PD enzyme, fluorescence intensity (NADPH)
MEASUREMENT LABEL: IC50

[
  {
    "COMPOUND STRUCTURE STRING": "COc1ccc(C2(CNC(=O)c3ccc(OC)c([N+](=O)[O-])c3)CCCCC2)cc1OC",
    "EXPERIMENTAL VALUE": "8.33 µM"
  },
  {
    "COMPOUND STRUCTURE STRING": "CCn1c([N+](=O)[O-])nc2c1c(=O)[nH]c(=O)n2C",
    "EXPERIMENTAL VALUE": "12.2 µM"
  },
  {
    "COMPOUND STRUCTURE STRING": "Cc1ccc2nc(SCC(=O)N/N=C/c3ccco3)cc(C)c2c1",
    "EXPERIMENTAL VALUE": "10.3 µM"
  },
  {
    "COMPOUND STRUCTURE STRING": "Cc1ccc(NNS(=O)(=O)c2ccc(C)cc2)cc1",
    "EXPERIMENTAL VALUE": "12.6 µM"
  },
  {
    "COMPOUND STRUCTURE STRING": "Cc1cccc(C(=O)Nc2sc3c(c2C(=O)O)CCCC3)c1",
    "EXPERIMENTAL VALUE": "8.55 µM"
  }
]
